B1: HDV Ribozyme (parent)
chain: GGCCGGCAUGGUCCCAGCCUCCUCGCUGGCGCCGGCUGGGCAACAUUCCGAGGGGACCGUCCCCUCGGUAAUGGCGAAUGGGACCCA

Variants of: B1
experimentSummary: self-cleavage, relative activity (ratio to wild type); higher = more cleavage; co-transcriptional
propertyLabel: self-cleavage

| mutationId | propertyLabel | readoutNumber |
| --- | --- | --- |
| A71G A77G | self-cleavage | 0.88 |
| U65C A78U | self-cleavage | 0.312 |
| G6C U72G | self-cleavage | 0.229 |
| A45U G50C | self-cleavage | 0.767 |
| C21A C63U | self-cleavage | 0.0462 |
| C3A G29C | self-cleavage | 0 |
| C18G U60G | self-cleavage | 0.0791 |
